Test system: L132 (Lung) tumor cells
protocolDetails: MTT cytotoxicity assay, L132 cells
Format: cell-based
conditionContext: 1 μM, 48 hours
Excerpt: The cytotoxic effect of Lipo peptide analogs, DT-A1 (SEQ ID NO: 2), DT-B1 (SEQ ID NO: 3), DT-01 (SEQ ID NO: 4), DT-M1 (SEQ ID NO: 5) and DT-P1 (SEQ ID NO: 6) was studied by MTT assay which is based on the principle of uptake of MTT [3-[4,5-dimethylthiazol-2-yl]-2,5-diphenyl tetrazolium bromide], a tetrazolium salt by the metabolically active cells where it is metabolized by active mitochondria into a blue colored formazan product which can be read spectrophotometrically. […]
* marks the point of attachment. Palmitoyl = CCCCCCCCCCCCCCCC(=O)*; Octanoyl = CCCCCCCC(=O)*; Butyryl = CCCC(=O)*
Collected Percentage cytotoxicity values appear next to each entry.
Value expressed in %; do not type the unit.

// solved cases for Percentage cytotoxicity follow
# substance, Percentage cytotoxicity, %
measured = [
    ("Ac-LMYPTYLK-OH [DT-A1]", 12.9),
    ("n-Butanoyl-Leu-Met-Tyr-Pro-Thr-Tyr-Leu-Lys-OH (Butyryl-LMYPTYLK-OH) [DT-B1]", 11.8),
    ("n-Octanoyl-Leu-Met-Tyr-Pro-Thr-Tyr-Leu-Lys-OH (Octanoyl-LMYPTYLK-OH) [DT-O1]", 7.9),
]

Field: next substance
What value of Percentage cytotoxicity has been reported for the following substance? Palmitoyl-Leu-Met-Tyr-Pro-Thr-Tyr-Leu-Lys-OH (Palmitoyl-LMYPTYLK-OH) [DT-P1]
17.8

From: patent US6828304B1
